This collection of values is drawn from patent US20150105316A1.

targetOfAssay: T1, human angiotensin 2 type 1 receptor (human, UniProt P30556 1-359)
T1 sequence (looked up): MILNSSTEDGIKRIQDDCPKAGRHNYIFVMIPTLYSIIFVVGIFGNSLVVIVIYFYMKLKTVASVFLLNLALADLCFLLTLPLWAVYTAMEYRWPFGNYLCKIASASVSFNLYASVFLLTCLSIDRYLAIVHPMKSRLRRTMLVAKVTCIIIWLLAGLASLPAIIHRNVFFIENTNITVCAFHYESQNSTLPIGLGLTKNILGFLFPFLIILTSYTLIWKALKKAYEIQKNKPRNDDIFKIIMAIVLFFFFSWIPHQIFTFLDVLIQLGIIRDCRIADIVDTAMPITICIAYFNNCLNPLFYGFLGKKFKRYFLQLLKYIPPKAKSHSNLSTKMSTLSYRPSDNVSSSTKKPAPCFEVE
experimentalProtocol: cell-based or functional assay
Where no end group is shown, it is not given here. [ ]: non-standard residue; d: D form. The star is where a group is joined. Tle = CC(C)(C)[C@H](N)C(=O)O; Ac6c = NC1(C(=O)O)CCCCC1; Ac5c = NC1(C(=O)O)CCCC1; Aib = CC(C)(N)C(=O)O; NHiPr = CC(C)N*; Sar = CNCC(=O)O
propertyName: IP1 G-protein assay EC50

1) [Sar]RVY[Ac5c]HPT [SEQ ID NO: 21 (Sar-Arg-Val-Tyr-cyPen-His-Pro-Thr)] :: > 1.3 nM
2) [Sar]RVY[Ac6c]HP-NHiPr [SEQ ID NO: 46 (Sar-Arg-Val-Tyr-cyHex-His-Pro-NH-i-Pr)] :: > 1.3 nM
3) [Sar]RVY[Ac5c]HPM [SEQ ID NO: 23 (Sar-Arg-Val-Tyr-cyPen-His-Pro-Met)] :: > 1.3 nM
4) [Sar]RVYPHPA [SEQ ID NO: 1 (Sar-Arg-Val-Tyr-Pro-His-Pro-Ala)] :: > 10000 nM
5) [Sar]RVY[Ac6c]HPS [SEQ ID NO: 15 (Sar-Arg-Val-Tyr-cyHex-His-Pro-Ser)] :: > 1.3 nM
6) [Sar]RVY[Aib]HPV [SEQ ID NO: 33 (Sar-Arg-Val-Tyr-AA01-His-Pro-Val)] :: > 1.3 nM
7) [Sar]RVYPHPM [SEQ ID NO: 9 (Sar-Arg-Val-Tyr-Pro-His-Pro-Met)] :: 5 nM
8) [Sar]RVYPHPS [SEQ ID NO: 8 (Sar-Arg-Val-Tyr-Pro-His-Pro-Ser)] :: 6310 nM
9) [Sar]RVY[Ac6c]HPR [SEQ ID NO: 42 (Sar-Arg-Val-Tyr-cyHex-His-Pro-Arg)] :: > 1.3 nM
10) [Sar]RVY[Ac5c]HPI [SEQ ID NO: 18 (Sar-Arg-Val-Tyr-cyPen-His-Pro-Ile)] :: > 1.3 nM
11) [Sar]RVYPHPT [SEQ ID NO: 7 (Sar-Arg-Val-Tyr-Pro-His-Pro-Thr)] :: > 10000 nM
12) [Sar]RVY[Ac6c]HPF [SEQ ID NO: 17 (Sar-Arg-Val-Tyr-cyHex-His-Pro-Phe)] :: < 1.3 nM
13) [Sar]RVY[Ac6c]HPY [SEQ ID NO: 55 (Sar-Arg-Val-Tyr-cyHex-His-Pro-Tyr)] :: > 1.3 nM
14) [Sar]RVYPHPF [SEQ ID NO: 10 (Sar-Arg-Val-Tyr-Pro-His-Pro-Phe)] :: 1.3 nM
15) [Sar]RVY[Ac6c]HPI [SEQ ID NO: 11 (Sar-Arg-Val-Tyr-cyHex-His-Pro-Ile)] :: > 1.3 nM
16) [Sar]RVY[Ac6c]HP[Tle] [SEQ ID NO: 56 (Sar-Arg-Val-Tyr-cyHex-His-Pro-AA02)] :: > 1.3 nM
17) [Sar]RVY[Ac6c]HPT [SEQ ID NO: 14 (Sar-Arg-Val-Tyr-cyHex-His-Pro-Thr)] :: > 1.3 nM
18) [Sar]RVY[Ac5c]HPL [SEQ ID NO: 19 (Sar-Arg-Val-Tyr-cyPen-His-Pro-Leu)] :: > 1.3 nM
